Reported IFN-γ levels, test 1 values are given for each entry in this list.
System: IFN-γ
testSummary: IFN-γ levels in sera upon i.v. glycolipid administration to C57BL/6 mice (ELISA)
Type: in vivo
Design: unit not given here
conditionSummary: C57BL/6, serum, hour 24
Lab note: jot down the number only; don't add units.

-- ask Give its IFN-γ levels, test 1 value. Item: CCCCCCCCCCCCCCCCCCCCCCCCCCCCC(=O)N[C@@H](/C=C/[C@H]1O[C@H](CO)[C@H](O)[C@H](O)[C@H]1O)[C@H](O)[C@H](O)CCCCCCCCCCCCCC [A-2]
-- reply 7023

---

Test system: IL-4
testSummary: IL-4 levels in sera upon i.v. glycolipid administration to BALB/c mice (ELISA)
Format: in vivo
Set-up: unit not given here
conditionSummary: hour 48
Reported IL-4 level, test 1 values are given for each entry in this list.
Lab note: jot down the number only; don't add units.

// below: answered compounds
INSERT INTO measurements (compound, recordedmeasurement) VALUES
  ('CCCCCCCCCCCCCCCCCC/C=C/CCCCCCCCC(=O)N[C@@H](/C=C/[C@H]1O[C@H](CO)[C@H](O)[C@H](O)[C@H]1O)[C@H](O)[C@H](O)CCCCCCCCCCCCCC [A-1]', 46),
  ('CCCCCCCCCCCCCC[C@@H](O)[C@@H](O)[C@H](CC[C@H]1O[C@H](CO)[C@H](O)[C@H](O)[C@H]1O)NC(=O)CCCCCCCCCCCCCCCCCCCOCCCCCC [A-4]', 52),
  ('CCCCCCCCCCCCCCCCCCCCCCCCCC(=O)N[C@@H](CO[C@H]1O[C@H](CO)[C@H](O)[C@H](O)[C@H]1O)[C@H](O)[C@H](O)CCCCCCCCCCCCCC [KRN, reference compound]', 46);

-- ask Give its IL-4 level, test 1 value. Item: CCCCCCCCCCCCCCCCC/C=C/CCCCCCCCC(=O)N[C@@H](CC[C@H]1O[C@H](CO)[C@H](O)[C@H](O)[C@H]1O)[C@H](O)[C@H](O)CCCCCCCCCCCCCC [A-3]
-- reply 48

-- ask Give its IL-4 level, test 1 value. Item: CCCCCCCCCCCCCC[C@@H](O)[C@@H](O)[C@H](CC[C@H]1O[C@H](CO)[C@H](O)[C@H](O)[C@H]1O)NC(=O)CCCCCCCCCCCCCCCCCCCOCCCCC [A-5]
-- reply 41

-- ask Give its IL-4 level, test 1 value. Item: CCCCCCCCCCCCCCCCCCCCCCCCCC(=O)N[C@@H](CC[C@H]1O[C@H](CO)[C@H](O)[C@H](O)[C@H]1O)[C@H](O)[C@H](O)CCCCCCCCCCCCCC [CRONY, reference compound]
-- reply 45

-- ask Give its IL-4 level, test 1 value. Item: CCCCCCCCCCCCCCCCCCCCCCCCCCCCC(=O)N[C@@H](/C=C/[C@H]1O[C@H](CO)[C@H](O)[C@H](O)[C@H]1O)[C@H](O)[C@H](O)CCCCCCCCCCCCCC [A-2]
-- reply 42

---

Tested on: IFN-γ
testSummary: IFN-γ levels in sera upon i.v. glycolipid administration to BALB/c mice (ELISA)
Type: in vivo
Parameters: unit not given here
conditionSummary: BALB/c, serum, hour 48
assayReadout: IFN-γ levels, test 1
Lab note: jot down the number only; don't add units.

-- ask Give its IFN-γ levels, test 1 value. Item: CCCCCCCCCCCCCCCCCCCCCCCCCCCCC(=O)N[C@@H](/C=C/[C@H]1O[C@H](CO)[C@H](O)[C@H](O)[C@H]1O)[C@H](O)[C@H](O)CCCCCCCCCCCCCC [A-2]
-- reply 319

-- ask Give its IFN-γ levels, test 1 value. Item: CCCCCCCCCCCCCCCCCC/C=C/CCCCCCCCC(=O)N[C@@H](/C=C/[C@H]1O[C@H](CO)[C@H](O)[C@H](O)[C@H]1O)[C@H](O)[C@H](O)CCCCCCCCCCCCCC [A-1]
-- reply 441

-- ask Give its IFN-γ levels, test 1 value. Item: CCCCCCCCCCCCCC[C@@H](O)[C@@H](O)[C@H](CC[C@H]1O[C@H](CO)[C@H](O)[C@H](O)[C@H]1O)NC(=O)CCCCCCCCCCCCCCCCCCCOCCCCC [A-5]
-- reply 453

-- ask Give its IFN-γ levels, test 1 value. Item: CCCCCCCCCCCCCCCCC/C=C/CCCCCCCCC(=O)N[C@@H](CC[C@H]1O[C@H](CO)[C@H](O)[C@H](O)[C@H]1O)[C@H](O)[C@H](O)CCCCCCCCCCCCCC [A-3]
-- reply 231

-- ask Give its IFN-γ levels, test 1 value. Item: CCCCCCCCCCCCCCCCCCCCCCCCCC(=O)N[C@@H](CC[C@H]1O[C@H](CO)[C@H](O)[C@H](O)[C@H]1O)[C@H](O)[C@H](O)CCCCCCCCCCCCCC [CRONY, reference compound]
-- reply 320

-- ask Give its IFN-γ levels, test 1 value. Item: CCCCCCCCCCCCCCCCCCCCCCCCCC(=O)N[C@@H](CO[C@H]1O[C@H](CO)[C@H](O)[C@H](O)[C@H]1O)[C@H](O)[C@H](O)CCCCCCCCCCCCCC [KRN, reference compound]
-- reply 86

-- ask Give its IFN-γ levels, test 1 value. Item: CCCCCCCCCCCCCC[C@@H](O)[C@@H](O)[C@H](CC[C@H]1O[C@H](CO)[C@H](O)[C@H](O)[C@H]1O)NC(=O)CCCCCCCCCCCCCCCCCCCOCCCCCC [A-4]
-- reply 752

---

Reported IL-12 levels, test 1 values are given for each entry in this list.
System: IL-12
testSummary: IL-12 levels in sera upon i.v. glycolipid administration to C57BL/6 mice (ELISA)
Assay type: in vivo
Parameters: unit not given here
conditionSummary: C57BL/6, serum, hour 0
Lab note: jot down the number only; don't add units.

INSERT INTO measurements (molecule, assayreadout, recordedmeasurement) VALUES
  ('CCCCCCCCCCCCCCCCCCCCCCCCCC(=O)N[C@@H](CO[C@H]1O[C@H](CO)[C@H](O)[C@H](O)[C@H]1O)[C@H](O)[C@H](O)CCCCCCCCCCCCCC [KRN, reference compound]', 'IL-12 levels, test 1', 5);

-- ask Field: IL-12 levels, test 1 (IL-12). Entry: CCCCCCCCCCCCCCCCCCCCCCCCCC(=O)N[C@@H](CC[C@H]1O[C@H](CO)[C@H](O)[C@H](O)[C@H]1O)[C@H](O)[C@H](O)CCCCCCCCCCCCCC [CRONY, reference compound]
-- reply 5

---

Test system: IL-12
testSummary: IL-12 levels in sera upon i.v. glycolipid administration to C57BL/6 mice (ELISA)
Format: in vivo
Design: unit not given here
conditionSummary: C57BL/6, serum, total over hours 0-72
assayReadout: IL-12 levels, Total
Lab note: jot down the number only; don't add units.

// below: answered compounds
INSERT INTO measurements (compound, assayreadout, recordedmeasurement) VALUES
  ('CCCCCCCCCCCCCCCCCCCCCCCCCC(=O)N[C@@H](CC[C@H]1O[C@H](CO)[C@H](O)[C@H](O)[C@H]1O)[C@H](O)[C@H](O)CCCCCCCCCCCCCC [CRONY, reference compound]', 'IL-12 levels, Total', 1379),
  ('CCCCCCCCCCCCCCCCCC/C=C/CCCCCCCCC(=O)N[C@@H](/C=C/[C@H]1O[C@H](CO)[C@H](O)[C@H](O)[C@H]1O)[C@H](O)[C@H](O)CCCCCCCCCCCCCC', 'IL-12 levels, Total', 4332),
  ('CCCCCCCCCCCCCC[C@@H](O)[C@@H](O)[C@H](CC[C@H]1O[C@H](CO)[C@H](O)[C@H](O)[C@H]1O)NC(=O)CCCCCCCCCCCCCCCCCCCOCCCCCC', 'IL-12 levels, Total', 1274);

Could you now consider this next compound?
-- ask Field: IL-12 levels, Total (IL-12). Entry: CCCCCCCCCCCCCCCCCCCCCCCCCC(=O)N[C@@H](CO[C@H]1O[C@H](CO)[C@H](O)[C@H](O)[C@H]1O)[C@H](O)[C@H](O)CCCCCCCCCCCCCC [KRN, reference compound]
-- reply 1440

---

Reported IL-12 levels, average values are given for each entry in this list.
System: IL-12
testSummary: IL-12 levels in sera upon i.v. glycolipid administration to BALB/c mice (ELISA)
Format: in vivo
Parameters: unit not given here
conditionSummary: serum, hour 2
Protocol: Five- to six-week-old female C57BL/6 mice and BALB/c mice were purchased from Taconic. Each glycolipid was stored at 1 mg/ml in 100% DMSO. […] At indicated time points, sera were collected from each animal, and concentrations of IFN-γ, IL-4, and IL-12 in the sera were evaluated by enzyme-linked immunosorbent assay (ELISA). Serum concentrations of IFN-γ, IL-4, and IL-12 were evaluated using an ELISA kit (eBioscience, San Diego, Calif.). […]
Lab note: jot down the number only; don't add units.

// below: answered molecules
INSERT INTO results (molecule, systemname, recordedmeasurement) VALUES
  ('CCCCCCCCCCCCCCCCCC/C=C/CCCCCCCCC(=O)N[C@@H](/C=C/[C@H]1O[C@H](CO)[C@H](O)[C@H](O)[C@H]1O)[C@H](O)[C@H](O)CCCCCCCCCCCCCC [A-1]', 'IL-12', 119.5),
  ('CCCCCCCCCCCCCCCCC/C=C/CCCCCCCCC(=O)N[C@@H](CC[C@H]1O[C@H](CO)[C@H](O)[C@H](O)[C@H]1O)[C@H](O)[C@H](O)CCCCCCCCCCCCCC [A-3]', 'IL-12', 240),
  ('CCCCCCCCCCCCCCCCCCCCCCCCCC(=O)N[C@@H](CC[C@H]1O[C@H](CO)[C@H](O)[C@H](O)[C@H]1O)[C@H](O)[C@H](O)CCCCCCCCCCCCCC [CRONY, reference compound]', 'IL-12', 66);

Could you now consider this next molecule?
-- ask Give its IL-12 levels, average value. Item: CCCCCCCCCCCCCC[C@@H](O)[C@@H](O)[C@H](CC[C@H]1O[C@H](CO)[C@H](O)[C@H](O)[C@H]1O)NC(=O)CCCCCCCCCCCCCCCCCCCOCCCCC [A-5]
-- reply 153.5
